Molecular target: T1, mStau2 dsRBD2 (Mus musculus, UniProt Q8CJ67 95-181)
T1 sequence: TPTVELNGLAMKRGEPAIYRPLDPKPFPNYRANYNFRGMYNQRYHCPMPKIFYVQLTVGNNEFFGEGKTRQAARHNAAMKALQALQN
Test: SPR; Hill n 1.1; text says 829 nM; SPR: HBS-EP (10 mM HEPES pH 7.4, 150 mM NaCl, 3 mM EDTA, 0.005% P20); EMSA: 5 nM RNA, protein buffer (40 mM Bis-Tris pH 7, 150 mM NaCl, 2 mM DTT presumed), 4% glycerol, 30 ug/mL yeast tRNA, RT; NMR: 150 mM NaCl, 20 mM Na phosphate pH 7.0, 5 mM DTT, 298 K
Conditions: protein: recombinant; label: 5' 32P (EMSA); biotin (SPR); imperfect hairpin, 26 bp with two bulges
reported-metric: Kd (nM)

[[record]]
binder = "SRS* (SRS3) (structured_RNA) RNA: GGUAUGUGUGAAUGUGCAUGAAUAUAUAUAUAUAUGCAUAUAUAUAUUUGUAUAUGUUCACACAUG"
reported_metric = "Kd"
unit_info = "nM"
test_result = 828

